# Tested on: Escherichia coli TOP10
# METHOD: shrunken log2 fold change of peptide-encoding DNA abundance (4.5 h post-induction vs induction); higher = less antimicrobial activity (less host growth inhibition)
# TEST_CONDITIONS: time post-induction: 4.5 h; library: site-saturation at positions 5, 18, 19, 20
MEASUREMENT_KIND: shrunken log2 fold change
Numbers only.

1. RRIRGRPPRLPRPRPRPAGDPRP	1.11
2. RRIRLRPPRLPRPRPRPDRSPRP	-0.0286
3. RRIRIRPPRLPRPRPRPAFYPRP	-0.387
4. RRIRQRPPRLPRPRPRPNSSPRP	-1.14
5. RRIRSRPPRLPRPRPRPRDSPRP	-0.158

Below are 3 sequences. Give each one its shrunken log2 fold change.
1. RRIRFRPPRLPRPRPRPDCKPRP
2. RRIRHRPPRLPRPRPRPRHMPRP
3. RRIRLRPPRLPRPRPRPRFGPRP

1: 0.154; 2: -0.0251; 3: 0.145

* * *

# Test system: Escherichia coli TOP10
# METHOD: shrunken log2 fold change of peptide-encoding DNA abundance (4.5 h post-induction vs induction); higher = less antimicrobial activity (less host growth inhibition)
# TEST_CONDITIONS: time post-induction: 4.5 h; library: site-saturation at positions 5, 18, 19, 20
Assign shrunken log2 fold change to each entry below.
One number for each entry.

Consider the worked cases shown below.
1. RRIRCRPPRLPRPRPRPEGHPRP	0.38
2. RRIRPRPPRLPRPRPRPDLFPRP	0.0947
3. RRIRARPPRLPRPRPRPCDRPRP	-0.00133

Provide each entry's shrunken log2 fold change from the list below.
1. RRIRPRPPRLPRPRPRPMARPRP
2. RRIRIRPPRLPRPRPRPSNGPRP
3. RRIRYRPPRLPRPRPRPMFWPRP
4. RRIRERPPRLPRPRPRPNATPRP
5. RRIRSRPPRLPRPRPRPDPFPRP
6. RRIRPRPPRLPRPRPRPPEIPRP
7. RRIRPRPPRLPRPRPRPGDQPRP
8. RRIRWRPPRLPRPRPRPHDVPRP

0.154
0.0107
-0.0534
0.287
-0.214
-0.0297
3.33
0.132

Report shrunken log2 fold change for each item below.
1. RRIRARPPRLPRPRPRPVPVPRP
2. RRIRHRPPRLPRPRPRPCAQPRP
3. RRIRTRPPRLPRPRPRPQNNPRP

[0.423, 0.000337, -0.716]

* * *

# Tested on: Escherichia coli TOP10
# METHOD: shrunken log2 fold change of peptide-encoding DNA abundance (4.5 h post-induction vs induction); higher = less antimicrobial activity (less host growth inhibition)
# TEST_CONDITIONS: time post-induction: 4.5 h; library: site-saturation at positions 5, 18, 19, 20
Tag: Met if measured shrunken log2 fold change is not below -0.2, Not met if it is.

Example cases with answers are listed next.
1. RRIRQRPPRLPRPRPRPRMWPRP	Not met
2. RRIRMRPPRLPRPRPRPIRMPRP	Met
3. RRIRVRPPRLPRPRPRPRYIPRP	Not met
4. RRIRKRPPRLPRPRPRPSHIPRP	Met
5. RRIRGRPPRLPRPRPRPNLSPRP	Met

Textbook exercise: given the entry RRIRDRPPRLPRPRPRPKAEPRP , state whether its shrunken log2 fold change is greater than or equal to -0.2.
Met

Please indicate if the recorded shrunken log2 fold change for RRIRFRPPRLPRPRPRPSSDPRP meets or exceeds -0.2.
Not met

Can RRIRKRPPRLPRPRPRPKDWPRP be said to have shrunken log2 fold change at or above -0.2?
Met

* * *

Assign shrunken log2 fold change to each entry below.
# Test system: Escherichia coli TOP10
# METHOD: shrunken log2 fold change of peptide-encoding DNA abundance (4.5 h post-induction vs induction); higher = less antimicrobial activity (less host growth inhibition)
# TEST_CONDITIONS: time post-induction: 4.5 h; library: site-saturation at positions 5, 18, 19, 20

Would you please look over these solved cases?
1) RRIRSRPPRLPRPRPRPKEWPRP	-0.0193
2) RRIRIRPPRLPRPRPRPSKSPRP	-0.413
3) RRIRGRPPRLPRPRPRPNWGPRP	0.44
4) RRIRMRPPRLPRPRPRPHGDPRP	-0.0284
5) RRIRCRPPRLPRPRPRPPIMPRP	-0.0556
6) RRIRKRPPRLPRPRPRPGHFPRP	0.0417
7) RRIRWRPPRLPRPRPRPFHLPRP	-0.818
8) RRIRWRPPRLPRPRPRPDWSPRP	0.0189

State recorded shrunken log2 fold change for all listed sequences.
1. RRIRPRPPRLPRPRPRPEDKPRP
2. RRIRNRPPRLPRPRPRPDWWPRP
3. RRIRKRPPRLPRPRPRPADKPRP

[0.163, 0.304, 0.122]

* * *

# Test system: Escherichia coli TOP10
# METHOD: shrunken log2 fold change of peptide-encoding DNA abundance (4.5 h post-induction vs induction); higher = less antimicrobial activity (less host growth inhibition)
# TEST_CONDITIONS: time post-induction: 4.5 h; library: site-saturation at positions 5, 18, 19, 20
Tag: 1 if measured shrunken log2 fold change is not below -0.07, 0 if it is.

1. RRIRHRPPRLPRPRPRPCMHPRP	0
2. RRIRCRPPRLPRPRPRPAVCPRP	1
3. RRIRRRPPRLPRPRPRPMAMPRP	1

Answer whether shrunken log2 fold change of RRIRTRPPRLPRPRPRPDNVPRP is greater than or equal to -0.07.
0

For this sequence, is measured shrunken log2 fold change -0.07 or higher? RRIRKRPPRLPRPRPRPNQRPRP
0

Please check the record RRIRERPPRLPRPRPRPQQAPRP and state if its shrunken log2 fold change is at or above -0.07.
1

Would you say RRIRDRPPRLPRPRPRPAQLPRP shows shrunken log2 fold change at minimum -0.07?
1

* * *

# Test system: Escherichia coli TOP10
# METHOD: shrunken log2 fold change of peptide-encoding DNA abundance (4.5 h post-induction vs induction); higher = less antimicrobial activity (less host growth inhibition)
# TEST_CONDITIONS: time post-induction: 4.5 h; library: site-saturation at positions 5, 18, 19, 20
MEASUREMENT_KIND: shrunken log2 fold change
Numbers only.

These solved cases illustrate the format of a correct answer.
1. RRIRKRPPRLPRPRPRPWTVPRP	-1.8
2. RRIRYRPPRLPRPRPRPPSTPRP	-0.294

Would you be so kind as to report shrunken log2 fold change for each listed record?
1. RRIRRRPPRLPRPRPRPPQQPRP
2. RRIRSRPPRLPRPRPRPSMYPRP
3. RRIRMRPPRLPRPRPRPKAQPRP
4. RRIRCRPPRLPRPRPRPLMYPRP

1. 0.951
2. -0.286
3. 1.72
4. -0.606

Please state shrunken log2 fold change for every sequence in the list that follows.
1. RRIRYRPPRLPRPRPRPSENPRP
2. RRIRGRPPRLPRPRPRPMYQPRP

[-0.235, -0.0304]

Lab note: each sequence below needs its shrunken log2 fold change filled in.
1. RRIRGRPPRLPRPRPRPSMLPRP
2. RRIRTRPPRLPRPRPRPCWHPRP
3. RRIRKRPPRLPRPRPRPMKTPRP
4. RRIRIRPPRLPRPRPRPREAPRP

0.58
-0.119
0.0431
0.0165

* * *

Please provide measured shrunken log2 fold change for the entries that follow.
# Tested on: Escherichia coli TOP10;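 note: peptides expressed intracellularly from a pBAD plasmid library in pooled LB shake-flask culture, induced with 0.3% L-arabinose, DNA abundance read by NGS, three biological replicates, DESeq2 with apeglm shrinkage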
# METHOD: shrunken log2 fold change of peptide-encoding DNA abundance (4.5 h post-induction vs induction); higher = less antimicrobial activity (less host growth inhibition)
# TEST_CONDITIONS: time post-induction: 4.5 h; library: site-saturation at positions 5, 18, 19, 20

Worked examples, 10 sequences total:
1. RRIRKRPPRLPRPRPRPWMTPRP	-0.13
2. RRIRERPPRLPRPRPRPCTCPRP	-0.00884
3. RRIRDRPPRLPRPRPRPQRKPRP	0.0137
4. RRIRNRPPRLPRPRPRPWWPPRP	-0.218
5. RRIRPRPPRLPRPRPRPMKMPRP	-0.148
6. RRIRPRPPRLPRPRPRPHAWPRP	0.189
7. RRIRDRPPRLPRPRPRPVEFPRP	-0.0374
8. RRIRLRPPRLPRPRPRPILTPRP	-0.281
9. RRIRARPPRLPRPRPRPDYWPRP	0.139
10. RRIRCRPPRLPRPRPRPMCQPRP	-0.0371

Record shrunken log2 fold change per entry; entries follow.
1. RRIRFRPPRLPRPRPRPVNIPRP
2. RRIRWRPPRLPRPRPRPQRQPRP
3. RRIRKRPPRLPRPRPRPMYAPRP
4. RRIRARPPRLPRPRPRPKFPPRP
5. RRIRLRPPRLPRPRPRPLEYPRP
6. RRIRKRPPRLPRPRPRPQLTPRP
7. RRIRARPPRLPRPRPRPHKLPRP
8. RRIRLRPPRLPRPRPRPARDPRP

1: -0.16; 2: 0.123; 3: -0.145; 4: 2.15; 5: -0.116; 6: 0.14; 7: 0.214; 8: 0.426

// for each sequence below, give its shrunken log2 fold change
1. RRIRSRPPRLPRPRPRPITKPRP
2. RRIRMRPPRLPRPRPRPCYTPRP
3. RRIRVRPPRLPRPRPRPPGWPRP
4. RRIRYRPPRLPRPRPRPVDLPRP
5. RRIRTRPPRLPRPRPRPMWEPRP

[-0.083, -0.0524, 0.718, 0.0483, -0.0158]

Please give shrunken log2 fold change for each item listed below.
1. RRIRPRPPRLPRPRPRPGYDPRP
2. RRIRVRPPRLPRPRPRPWKQPRP
3. RRIRMRPPRLPRPRPRPHQIPRP
4. RRIRDRPPRLPRPRPRPRSFPRP
5. RRIRPRPPRLPRPRPRPFIVPRP

[-0.0887, -0.0479, -0.00201, 0.429, -0.257]
